MEASUREMENT DESCRIPTION: Stability of compound in rat hepatocytes assessed as parent compound remaining incubated for 60 mins
Format: ADME, cell-based, Hepatocyte
SETUP CONDITIONS: read-out: Stability
PARAMETER MEASURED: remaining at 1 h (%)

The cases that follow already have their remaining at 1 h on record.
test_smiles=O=C([C@H]1Cc2cc(Cl)cc(-c3ccnc4cc(CN5C(=O)CCC5=O)sc34)c2O1)N1CCNCC1 measured_number=14
test_smiles=O=C1CCC(=O)N1Cc1cc2nccc(-c3cc(Cl)cc4c3O[C@@H](c3onc5c3CNCC5)C4)c2s1 measured_number=4

A: O=C1CCC(=O)N1Cc1cc2nccc(-c3cc(Cl)cc4c3O[C@@H](c3ocnc3CN3CCC3)C4)c2s1
B: Cn1nc2c(c1[C@H]1Cc3cc(Cl)cc(-c4ccnc5cc(CN6C(=O)CCC6=O)sc45)c3O1)CNCC2
Task item: When A and B are compared, which has the higher number for remaining at 1 h? Reply briefly: the label of your chosen item.
Reply: B
(B: 42%, A: 2%)
